# fold over parental (CHO WT) per entry
Molecular target: T1, Full length Mouse TfR on CHO cells (mouse, UniProt Q62351 1-763)
T1 construct: also called CHO + muTfR
T1 sequence (Q62351 whole entry): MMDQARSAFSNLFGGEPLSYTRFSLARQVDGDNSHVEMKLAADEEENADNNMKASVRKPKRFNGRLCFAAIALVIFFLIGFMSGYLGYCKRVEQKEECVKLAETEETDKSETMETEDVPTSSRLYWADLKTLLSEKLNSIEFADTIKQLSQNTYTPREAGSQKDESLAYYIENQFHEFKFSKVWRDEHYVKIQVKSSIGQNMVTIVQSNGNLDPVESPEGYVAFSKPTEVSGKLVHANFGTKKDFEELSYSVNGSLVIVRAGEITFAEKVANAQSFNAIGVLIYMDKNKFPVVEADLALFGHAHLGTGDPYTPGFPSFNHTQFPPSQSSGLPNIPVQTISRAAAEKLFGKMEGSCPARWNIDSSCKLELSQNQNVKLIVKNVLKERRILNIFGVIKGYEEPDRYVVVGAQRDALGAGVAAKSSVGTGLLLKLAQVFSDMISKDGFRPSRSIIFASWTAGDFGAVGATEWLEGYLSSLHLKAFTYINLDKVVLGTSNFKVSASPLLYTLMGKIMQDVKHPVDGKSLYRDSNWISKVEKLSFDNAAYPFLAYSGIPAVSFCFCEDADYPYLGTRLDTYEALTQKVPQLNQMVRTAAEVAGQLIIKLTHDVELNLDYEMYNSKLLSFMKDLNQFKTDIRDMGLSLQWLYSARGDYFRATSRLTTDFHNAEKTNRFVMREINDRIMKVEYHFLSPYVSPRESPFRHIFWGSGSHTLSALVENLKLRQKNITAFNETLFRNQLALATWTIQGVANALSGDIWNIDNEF
Test: FACS MFI, supernatant
The answer is to be given in fold; state only the numeric part.

Some binders with known fold over parental (CHO WT) results, for comparison:
binder	units_of_measure	fold over parental (CHO WT)
TfR30 (mouse hybridoma antibody) (antibody, V domains shown, mouse IgG in hybridoma supernatant) VH: QVQLQQSGPQLVRPGASVKISCKASGYSFTNYWLHWVKQRPGQGLEWIGMIDPSDSETRLNQKFKDKATLTVDKSSSTAYMQLSSPTSEDSAVYYCARWGGGYYGFAYWGQGTLVTVSA VL: DIVMTQSQKFMSTSVGDRVSITCKASQNVRTAVAWYQQKPGQSPKALIYLASNRHTGVPDRFTGSGSGTDFTLTISNVQSEDLADYFCLQHWNYPWTFGGGTKLEIK	fold	1
TfR31 (mouse hybridoma antibody) (antibody, V domains shown, mouse IgG in hybridoma supernatant) VH: DVQLQESGPGLVKPSQSLSLTCTVTGYSITSDYAWNWIRQFPGNKLEWMGYISYSGRTSYNPSLKSRISFTRDTSKNQFFLQLNSVTTEDTATYYCAGWGYRYLEDYWGQGTSVTVSS VL: QIVLTQSPAIMSASPGEKVTMTCSASSSISSMHWYQLKPGTSPKKWIYDTSKLASGVPARFSGSGSGTSYSLTISSMEAEDAATYYCHQRSSYPWTFGGGTKLEIK	fold	1

Give me measured fold over parental (CHO WT), please, for this binder: TfR6 (mouse hybridoma antibody) (antibody, V domains shown, mouse IgG in hybridoma supernatant) VH: DVQLVESGGGLVQPGGSRKLSCAASGFTFSSFGMHWVRQAPEKGLEWVAYISSGSSAIYYADTVKGRFTVSRDNPKNTLFLQMTSLRSEDTAIYYCATSYVYDPPWFAYWGQGTLVTVSA VL: DIVMTQSHKFMSTSVGDRVSITCKASQDVSTAVAWYQQKPGQSPKLLIYWASTRPTGVPDRFTGSGSGTDYTLTISSVQAEDLALYSCQQHFSTPWTFGGGTKLEIK
1

These measurements were taken from patent US20250270339A1.
